Tested on: MDA-MB-436
Assay Procedure: normalised viability (% of control), CellTiter-Blue; higher = more viable cells (about 100 = DMSO control)
Protocol Conditions: 10000 nM; incubation time: 72 h
Binary call on normalised viability with cut-off 90%: strictly below means TRUE, and equality or higher means FALSE.

{"Compound": "CC(C)Cn1cnc2c(N)nc3ccccc3c21 [Imiquimod]", "Class Name": "FALSE"}
{"Compound": "CN(C)/N=N/c1[nH]cnc1C(N)=O [Dacarbazine]", "Class Name": "FALSE"}
{"Compound": "CC1(C)NC(=O)N(c2ccc([N+](=O)[O-])c(C(F)(F)F)c2)C1=O [Nilutamide]", "Class Name": "FALSE"}
{"Compound": "C=C(c1ccc(C(=O)O)cc1)c1cc2c(cc1C)C(C)(C)CCC2(C)C [Bexarotene]", "Class Name": "TRUE"}
{"Compound": "Cn1c(CCCC(=O)O)nc2cc(N(CCCl)CCCl)ccc21 [Bendamustine]", "Class Name": "FALSE"}
{"Compound": "Clc1ccc(Nc2nnc(Cc3ccncc3)c3ccccc23)cc1 [Vatalanib]", "Class Name": "TRUE"}
{"Compound": "O=P1(NCCCl)OCCCN1CCCl (centres undefined) [Ifosfamide]", "Class Name": "FALSE"}

Where do these numbers come from? They come from the supplement of paper PMC4862054.
